Overview of reported growth across a group of compounds:
Test system: RPMI-8226 leukemia
Test: NCI-60 one-dose screen, 48 h (100 = growth as untreated, 0 = no growth, -100 = all killed)
Conditions: 10 µM unless noted
The panel holds about 83,000 compounds, 20% with a hit somewhere; the sample as a whole holds those more often. Activity calls are given as the source filed them. The calls were made as follows: active = growth percent below 10; inactive = the rest.

Data request, read-out growth, for COc1cc(C2CC(c3cccc(Nc4ccnc5cc(Cl)ccc45)c3)=NN2c2ccc(Cl)cc2)cc(OC)c1OC (stereo not given)
47.8% (inactive)

Try this compound next: O=C(CI)NCCNc1cccc2c(S(=O)(=O)O)cccc12
101% (inactive)

Try this compound next: O=C(OCc1ccc2c(Cl)cc(Cl)c(O)c2n1)c1cc2ccccc2[nH]1
-37.4% (active)

Try this compound next: O=C(Nc1ccc(Br)cc1)Nc1ccccc1Cl
50% (inactive)

Try this compound next: Cc1cc(Cl)c2ccc(N(C)C)cc2n1
97% (inactive)

----------
Test system: M14 melanoma
Assay: NCI-60 one-dose screen, 48 h
Conditions: 10 µM unless noted
The panel holds about 83,000 compounds, 20% with a hit somewhere; the sample as a whole holds those more often. Calls of active or inactive are those of the source. How the source made its calls: active means growth percent below 10; inactive means the rest.
Write down one outcome, taken from yes (1) (active), no (0) (inactive)

COMPOUND	CATEGORY
COc1cccc2nc(Nc3cccc(NC(=O)c4cc(N5CCOCC5)cc(C(F)(F)F)c4)c3)ccc12	no (0)

Can you look up the reported call for CCc1ccc2c(c1)N(CCO)C1=C(C(=O)OC1)C2c1cccc(Br)c1 (centres undefined) for me?
no (0)

Try this compound next: COc1ccc(Nc2ncccc2C(=O)NCc2cn(Cc3cc(OC)cc(OC)c3)nn2)cc1
no (0)

Try this compound next: COc1cc(C2=NOC(c3cc(OC)c(OC)c(OC)c3)C2)ccc1OCCCCOc1cc2c(cc1OC)C(=O)N1CCC[C@H]1C=N2 (some centres undefined)
yes (1)

Try this compound next: Fc1ccc(-c2nnc(N3CCOCC3)c3ccccc23)cc1
no (0)

Try this compound next: C#CC[C@@H]1C[C@]2(C)[C@H]3CC=C4[C@H]5[C@@H](C)[C@H](C)CC[C@]5(C(=O)NCCCCN)CC[C@@]4(C)[C@]3(C)CC[C@H]2C(C)(C)[C@H]1OC(C)=O
no (0)

Try this compound next: CN(C)c1ccc(Nc2c3ccccc3nc3ccccc23)cc1
no (0)

Try this compound next: CCN1CCN(Cc2ccc(NC(=O)c3nc4ccc5[nH]ncc5c4c4c3CCCC4)cc2C(F)(F)F)CC1
yes (1)

Try this compound next: CCC(=O)NC(O)C(Cl)(Cl)C(C)Cl (centres undefined)
no (0)

Try this compound next: C=CCn1c(SCC(=O)Nc2ccc(/C(C)=N\O)cc2)nnc1-c1cc(-c2ccccc2)nc2ccccc12
no (0)

Try this compound next: CCCCCNCCCCCNc1cc(OC)cc2cccnc12
no (0)

Try this compound next: COc1cc(C2CC(c3cccc(Nc4ccnc5cc(Cl)ccc45)c3)=NN2c2ccc(Cl)cc2)cc(OC)c1OC (centres undefined)
no (0)

----------
Test system: HCT-116 colon
Experiment: NCI-60 one-dose screen, 48 h
Conditions: 10 µM unless noted
Compounds without any hit were thinned out: in the full panel of roughly 83,000, 20% have a hit. Active and inactive are the calls of the source. How the source made its calls: active means growth percent below 10; inactive means the rest.
Write down one outcome, taken from true (1) = active, false (0) = inactive

Can you look up the reported call for c1ccc(-c2[nH]c3ccccc3c2-c2ccccc2)cc1 for me?
false (0)

Try this compound next: CNCc1cccc2c1OCCOCCOCCC(C)S(=O)(=O)c1ccc(cc1)-c1cnc(N)c(n1)C(=O)N2 (stereo not drawn)
true (1)

Try this compound next: CCCCN(CCCC)CCCN=c1nc2c(c(N)n1-c1ccccc1)c(=S)n(-c1ccccc1)c(=S)n2-c1ccccc1
true (1)

Try this compound next: O=C(Nc1ccc2[nH]c3ccccc3c2c1)c1ccccc1Cl
false (0)

Try this compound next: CCCC(CCC)NCC(O)c1cc(-c2ccc(C(F)(F)F)cc2)nc(C(F)(F)F)c1 (stereo not drawn)
true (1)
